Entry source: BindingDB's records for doi:10.1074/jbc.M409068200

# assay.system: Vitamin K-dependent protein C (Homo sapiens, UniProt P04070)
# Sequence (P04070 43-197 limits assumed): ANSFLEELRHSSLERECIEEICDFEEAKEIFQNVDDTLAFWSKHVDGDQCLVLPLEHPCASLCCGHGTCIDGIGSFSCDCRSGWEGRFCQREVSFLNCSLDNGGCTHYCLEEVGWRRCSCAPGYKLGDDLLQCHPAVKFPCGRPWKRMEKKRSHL
# Sequence (P04070 212-461 limits assumed): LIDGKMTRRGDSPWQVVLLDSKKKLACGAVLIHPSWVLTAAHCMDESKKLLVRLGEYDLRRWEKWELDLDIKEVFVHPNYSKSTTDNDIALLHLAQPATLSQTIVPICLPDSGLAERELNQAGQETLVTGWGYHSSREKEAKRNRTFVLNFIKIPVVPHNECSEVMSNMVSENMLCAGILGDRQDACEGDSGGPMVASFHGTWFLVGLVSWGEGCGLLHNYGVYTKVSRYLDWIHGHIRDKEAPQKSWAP
pKi: −log10 of the molar value.
measured.parameter: pKi

entry.smiles: CCOc1cc(OCC)c(F)c([C@@H](Nc2ccc(C(=N)N)c(O)c2)C(=O)NS(=O)(=O)c2cccc(N)c2)c1
assay.system: Vitamin K-dependent protein C (Homo sapiens, UniProt P04070)
observed: 7.06
